ASSAYED SYSTEM: Serine/threonine-protein kinase PLK1 (Homo sapiens) (UniProt P53350)
Sequence (P53350 whole entry, looked up): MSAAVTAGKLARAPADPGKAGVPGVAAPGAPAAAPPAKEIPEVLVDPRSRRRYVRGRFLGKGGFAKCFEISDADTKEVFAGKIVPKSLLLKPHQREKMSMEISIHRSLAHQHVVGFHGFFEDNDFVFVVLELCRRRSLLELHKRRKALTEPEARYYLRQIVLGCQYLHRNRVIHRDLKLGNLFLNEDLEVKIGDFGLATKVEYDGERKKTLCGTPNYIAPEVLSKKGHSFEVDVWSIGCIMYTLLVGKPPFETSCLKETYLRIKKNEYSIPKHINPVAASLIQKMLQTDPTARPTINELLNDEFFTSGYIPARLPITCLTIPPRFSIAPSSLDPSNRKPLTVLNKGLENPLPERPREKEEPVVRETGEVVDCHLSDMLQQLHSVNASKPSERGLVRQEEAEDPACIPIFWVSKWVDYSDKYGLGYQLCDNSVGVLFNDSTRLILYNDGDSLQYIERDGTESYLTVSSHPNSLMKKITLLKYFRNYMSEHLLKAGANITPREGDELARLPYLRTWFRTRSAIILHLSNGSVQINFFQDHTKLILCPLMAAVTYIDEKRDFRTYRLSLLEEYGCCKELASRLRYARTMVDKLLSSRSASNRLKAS
ASSAY: human PLK1 kinase inhibitors, primary screen, biochemical, TR-FRET (AID 619);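 note: 0% = DMSO max control and 100% = H-89 dihydrochloride min control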
EXPERIMENTAL PARAMETERS: recombinant PLK1 kinase, TR-FRET peptide phosphorylation; at 10 µM; hits give high values
Screen size: about 97,000 compounds; about 520 (0.54%) were called active. The full list was thinned out, with actives kept by preference.
READOUT KIND: inhibition (%)
Write down the numeric answer in % and omit the unit.

Answered examples (3):
MOLECULE | UNIT SPEC | OBS VALUE
Cc1cccc(C(=O)Nc2ccccc2-c2nnn(CC(=O)Nc3ccc4c(c3)OCCO4)n2)c1 | % | -19.8
COc1ccc(Nc2nc(Cl)nc(NCc3ccco3)n2)cc1 | % | -10.4
COc1ccc(-c2nnc(SCC(=O)NC3CCCCC3)o2)cc1OC | % | -12.8

// next item, inhibition requested
Using the record for `O=C(NCCCN1CCOCC1)c1cc2c(s1)CCC2` , report its inhibition. 12.4

---

ASSAYED SYSTEM: Serine/threonine-protein kinase PLK1 (Homo sapiens)
ASSAY: human PLK1 kinase inhibitors, primary screen, biochemical, TR-FRET (AID 619);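 note: 0% = DMSO max control and 100% = H-89 dihydrochloride min control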
EXPERIMENTAL PARAMETERS: recombinant PLK1 kinase, TR-FRET peptide phosphorylation; at 10 µM
Out of some 97,000 compounds screened, about 520 (0.54%) were called active.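 How the source made its calls: active means inhibition of 50% or more in the single-concentration screen; inactive means inhibition below 50%.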 The full list was thinned out, with actives kept by preference.
Select the correct class. Options are true (1) (active), false (0) (inactive) and nothing else.

Some solved entries appear below for comparison.
COMPOUND | ASSAYED SYSTEM | CLASS NAME
CCCc1nnc(NC(=O)c2cccs2)s1 | Serine/threonine-protein kinase PLK1 (Homo sapiens) | false (0)
CC(Oc1ccc(F)cc1F)C(=O)/C=C/N(C)C (configuration not stated) | Serine/threonine-protein kinase PLK1 (Homo sapiens) | false (0)
CCc1ccccc1NC(=O)c1cccs1 | Serine/threonine-protein kinase PLK1 (Homo sapiens) | false (0)
O=C(Nc1ccccc1Cl)O/N=C(/c1ccccc1)c1ccccn1 | Serine/threonine-protein kinase PLK1 (Homo sapiens) | false (0)
CN(C)/C=C/C(=O)c1ccccc1F | Serine/threonine-protein kinase PLK1 (Homo sapiens) | false (0)

Dear all, I need the recorded test outcome for `O=C(Nc1ccc(S(=O)(=O)N2CCc3ccccc3C2)cc1)c1ccccc1` , thank you. false (0)

Next record, please: Cc1cccc(N2C(=O)C3C(c4ccccc4)OC4(C(=O)c5ccccc5C4=O)C3C2=O)c1 (configuration not stated) false (0)

Next record, please: `COc1ccccc1NS(=O)(=O)N(C)C` false (0)

Next record, please: CC1Cc2ccccc2N1C(=O)c1cc2sccc2n1Cc1ccccc1 (configuration not stated) false (0)

Next record, please: `CCCc1nc(NCc2ccc3c(c2)OCO3)c2nnn(Cc3ccccc3Cl)c2n1` false (0)

Next record, please: `COCCCNC(=O)CN1CCN(Cc2ccccc2Cl)C1=O` false (0)

Next record, please: Fc1ccc(N2N=C(c3cccs3)CC2c2ccco2)c(F)c1 (configuration not stated) false (0)

Next record, please: `CCc1c(C)nc2cc(C)[nH]n2c1=O` false (0)

Next record, please: `COc1ccc2ccccc2c1CNCc1ccccn1` false (0)

Next record, please: `Cc1oc2nc(SCC(=O)NCc3cccnc3)nc(N)c2c1C` false (0)

Next record, please: CCC(C)Sc1nnc(-c2c[nH]c3ccccc23)n1CCOC (configuration not stated) false (0)

Next record, please: CC1CC(C)CN(C(=O)CSc2nnc(CSc3ncccn3)n2C)C1 (configuration not stated) false (0)

Next record, please: `O=C(Nc1ccc(F)c(Cl)c1)C1CCN(S(=O)(=O)c2cccnc2)CC1` false (0)

Next record, please: `CC(=O)c1ccc(OCCN2CCOCC2)cc1` false (0)

Next record, please: `CCCOn1c(-n2nc(C)cc2C)nc2ccccc2c1=O` false (0)

Next record, please: `CCn1c(C)nc2c1C(=O)c1ccccc1C2=O` false (0)

Next record, please: `CCc1nnc(NC(=O)c2cccs2)s1` true (1)
